Hey, just so you know, these numbers are from PubChem BioAssay (NCI).

Test system: OVCAR-5 ovarian
EXPERIMENTAL PROTOCOL: NCI-60 one-dose screen, 48 h (100 = growth as untreated, 0 = no growth, -100 = all killed)
CONDITIONS: 10 µM unless noted
Protocol: Growth inhibition of the OVCAR-5 human tumor cell line is measured as a screen for anti-cancer activity. Cells are grown in 96 well plates and exposed to the test compound for 48 hours. Compounds are tested at a single concentration, which is 10^-5 M for most compounds. The reported endpoint is percent growth (GI% or GIPRCNT), where numbers from 0 - 100% represent growth inhibition, and numbers from -100% - 0 represent cell death. For example, a value of 40 represents 60% growth inhibition. […]
Compounds without any hit were thinned out: in the full panel of roughly 83,000, 20% have a hit.
# Lookup of reported growth keyed by entry
Lab book: enter the figure in %, no units written.

Below: 5 compounds and their reported growth.
Clc1ccc(C2CC(c3cccc(Nc4ccncc4)c3)=NN2c2ccc(Cl)cc2)cc1 (centres undefined) : 65.4
CN1CCN(CCCNc2nccc(-c3c(-c4ccc(F)c(O)c4)nc4sccn34)n2)S1(=O)=O : 131
N#Cc1c(NC(=O)c2cccc(Br)c2)sc2c1CCCC2 : 90.5
COc1ccc(-c2c(-c3ccccc3)noc2N)cc1OC : 117
Cc1nccc2c3ccc(OCc4cn(-c5ccc(Cl)cc5)nn4)cc3n(CCCc3ccccc3)c12 : 43.4

Exam item: State its growth for this compound: C=C1C(=O)O[C@H]2[C@H]1CC/C(COC(=O)CCCCCC(=O)OC/C1=C/CC[C@@]3(C)O[C@H]3[C@H]3OC(=O)C(=C)[C@@H]3CC1)=C\CC[C@@]1(C)O[C@@H]21
Marked response: 51.2

Exam item: State its growth for this compound: COc1c(Cl)cc(Cl)c2ccc(C=C3C(=O)NC(=S)NC3=O)nc12
Marked response: 109

Exam item: State its growth for this compound: COc1cccc(NC(=O)c2cccc(-c3cc(=O)c4c(OC)c(OC)c(OC)cc4o3)c2)c1
Marked response: 90.1

Exam item: State its growth for this compound: Fc1ccc2nc3c(cc2c1)CSc1nnc(-c2ccc[nH]c2=S)n1N3
Marked response: 95.4

* * *

System: BT-549 breast
EXPERIMENTAL PROTOCOL: NCI-60 one-dose screen, 48 h (100 = growth as untreated, 0 = no growth, -100 = all killed)
CONDITIONS: 10 µM unless noted
The panel holds about 83,000 compounds, 20% with a hit somewhere; the sample as a whole holds those more often.
# Lookup of reported growth keyed by entry
Lab book: enter the figure in %, no units written.

COc1ccc(C(=O)c2cc3c(N)c(C(=O)Nc4ccc(Br)cc4)sc3nc2C)cc1 : 78.2
O=C(O)c1ccc[n+](CC(=O)N2CCN(c3cc4c(cc3F)c(=O)c(C(=O)O)cn4C3CC3)CC2)c1 : 75.1
O=C1Nc2ccccc2/C1=C\c1cccc(/C=C2/C(=O)Nc3ccccc32)n1 : -86.4

Exam item: State its growth for this molecule: C(=C\c1n(Cc2ccc3ccccc3c2)c(-c2ccccc2)c(-c2ccccc2)[n+]1Cc1ccc2ccccc2c1)/c1ccccc1
Marked response: -83.2

Exam item: State its growth for this molecule: CC1NC(=S)NC(=O)/C1=C/c1cc(=O)oc2c1ccc1ccccc12 (stereo unspecified)
Marked response: 87.7

Exam item: State its growth for this molecule: Cc1ccc2[nH]c(=O)cc(-n3nncc3COc3ccc(C=O)cc3)c2c1
Marked response: 90.8

Exam item: State its growth for this molecule: NC(=O)c1cccc(-c2ccccc2N2CCCCC2)c1
Marked response: 101

Exam item: State its growth for this molecule: O=S(=O)(NCCCNc1nccc(-c2c(-c3ccccc3)nc3occn23)n1)c1ccc(Cl)cc1
Marked response: 104

Exam item: State its growth for this molecule: O=c1[nH]c2c(s1)CCCC2CN1CCCCC1 (stereo unspecified)
Marked response: 72.6

Exam item: State its growth for this molecule: CCOc1cc(CNc2ccc(N3CCOCC3)c(C(=O)O)c2)ccc1OC
Marked response: 108

Exam item: State its growth for this molecule: COc1ccncc1C#Cc1cncc(C(=O)Nc2ccc(CN3CCN(C)CC3)c(C(F)(F)F)c2)c1
Marked response: 50.9

Exam item: State its growth for this molecule: Fc1ccccc1CSc1ncnc2nc[nH]c12
Marked response: 137
